The measurements presented in this section are drawn from ChEMBL document CHEMBL3885861.

species on record: Rattus norvegicus; assay: Open TG-GATES - Regimen: Single; format: toxicity, organism-based, Sprague-Dawley; set-up: regimen Single, gender Male, age 6 weeks; settings: in vivo, po, 1000 mg/kg, 24 h, tissue Plasma, route gavage, dose level High
So I've got a bunch of molecules here, and I need their TBIL values.
Give bare numbers, in mg/dL.

Check out these entries, answers already filled in.
O=C(OC[C@H]1O[C@@H](OC(=O)c2cc(O)c(O)c(OC(=O)c3cc(O)c(O)c(O)c3)c2)[C@H](OC(=O)c2cc(O)c(O)c(OC(=O)c3cc(O)c(O)c(O)c3)c2)[C@@H](OC(=O)c2cc(O)c(O)c(OC(=O)c3cc(O)c(O)c(O)c3)c2)[C@@H]1OC(=O)c1cc(O)c(O)c(OC(=O)c2cc(O)c(O)c(O)c2)c1)c1cc(O)c(O)c(OC(=O)c2cc(O)c(O)c(O)c2)c1 = 0.3
CNC(=C[N+](=O)[O-])NCCSCc1ccc(CN(C)C)o1 = 0.1
COC(=O)C1=C(C)NC(C)=C(C(=O)OC)C1c1ccccc1[N+](=O)[O-] = 0.054
CN/C(=N/CCSCc1nc[nH]c1C)NC#N = 0.2

The record that follows has no TBIL shown yet.
Requested read-out: TBIL. Entry: Cc1nnc2n1-c1ccc(Cl)cc1C(c1ccccc1Cl)=NC2
0.058

---

species: Rattus norvegicus; assay: Open TG-GATES - Regimen: Single; format: toxicity, organism-based, Sprague-Dawley; parameters: regimen Single, gender Male, age 6 weeks; conditions: in vivo, po, 300 mg/kg, 6 h, tissue Plasma, route gavage, dose level Middle
Please note: TG exactly at 40 mg/dL is False. Only values below 40 mg/dL get True.

COC(=O)C1=C(C)NC(C)=C(C(=O)OC)C1c1ccccc1[N+](=O)[O-] [NIFEDIPINE] = True
CNC(=C[N+](=O)[O-])NCCSCc1ccc(CN(C)C)o1 [RANITIDINE] = False
O=C(OC[C@H]1O[C@@H](OC(=O)c2cc(O)c(O)c(OC(=O)c3cc(O)c(O)c(O)c3)c2)[C@H](OC(=O)c2cc(O)c(O)c(OC(=O)c3cc(O)c(O)c(O)c3)c2)[C@@H](OC(=O)c2cc(O)c(O)c(OC(=O)c3cc(O)c(O)c(O)c3)c2)[C@@H]1OC(=O)c1cc(O)c(O)c(OC(=O)c2cc(O)c(O)c(O)c2)c1)c1cc(O)c(O)c(OC(=O)c2cc(O)c(O)c(O)c2)c1 [TANNIC ACID] = True
Cc1nnc2n1-c1ccc(Cl)cc1C(c1ccccc1Cl)=NC2 [TRIAZOLAM] = True

Continue with the next compound.
For this compound, is TG lower than 40 mg/dL? CN/C(=N/CCSCc1nc[nH]c1C)NC#N [CIMETIDINE]
False

---

organism: Rattus norvegicus; assay: Open TG-GATES - Regimen: Single; format: toxicity, organism-based, Sprague-Dawley; parameters: regimen Single, gender Male, age 6 weeks; conditions: in vivo, po, 0 mg/kg, 9 h, tissue Liver, route gavage, dose level Control
test readout: LIVER (g)
Give bare numbers, in g.

Check out these entries, answers already filled in.
CNC(=C[N+](=O)[O-])NCCSCc1ccc(CN(C)C)o1 = 8.8
Nc1c2c(nc3ccccc13)CCCC2 = 8.8
CCOc1ccc(NC(C)=O)cc1 = 8.4
CN/C(=N/CCSCc1nc[nH]c1C)NC#N = 8.7
COC(=O)C1=C(C)NC(C)=C(C(=O)OC)C1c1ccccc1[N+](=O)[O-] = 7.4

List reported LIVER for each of these molecules:
1. CS(=O)(=O)O.Cc1ccc(NC(=O)c2ccc(CN3CCN(C)CC3)cc2)cc1Nc1nccc(-c2cccnc2)n1 [IMATINIB MESYLATE]
2. CN(C)CCC(c1ccc(Cl)cc1)c1ccccn1 (centres undefined)
3. NC1=NC(=O)C(c2ccccc2)O1 (centres undefined)
4. CCCc1cc(=O)[nH]c(=S)[nH]1
5. Cc1nnc2n1-c1ccc(Cl)cc1C(c1ccccc1Cl)=NC2
6. CC(C)NNC(=O)c1ccncc1
7. O=C(OC[C@H]1O[C@@H](OC(=O)c2cc(O)c(O)c(OC(=O)c3cc(O)c(O)c(O)c3)c2)[C@H](OC(=O)c2cc(O)c(O)c(OC(=O)c3cc(O)c(O)c(O)c3)c2)[C@@H](OC(=O)c2cc(O)c(O)c(OC(=O)c3cc(O)c(O)c(O)c3)c2)[C@@H]1OC(=O)c1cc(O)c(O)c(OC(=O)c2cc(O)c(O)c(O)c2)c1)c1cc(O)c(O)c(OC(=O)c2cc(O)c(O)c(O)c2)c1

[8.1, 7.7, 8.1, 7.6, 7.6, 8.5, 7.7]

List reported LIVER for each of these molecules:
1. CN1C(=O)CCS(=O)(=O)C1c1ccc(Cl)cc1 (centres undefined)
2. Brc1ccccc1

1. 8.6
2. 7.4
